test: Induction of hemolysis in sheep erythrocytes after 60 mins by spectrophotometer analysis; format: cell-based, Ovis aries, Erythrocyte; details: read-out: HD50
measurementLabel: HC50 at 1 h (µg/mL)
The reply should contain only the number, in µg/mL.

# return recorded HC50 at 1 h for input N=C(N)NCCC[C@H](N)C(=O)N[C@@H](Cc1ccccc1)C(=O)NCCCC[C@H](NC(=O)[C@H](Cc1ccccc1)NC(=O)[C@@H](N)CCCNC(=N)N)C(=O)NCCCC[C@H](NC(=O)[C@H](CCCCNC(=O)[C@H](Cc1ccccc1)NC(=O)[C@@H](N)CCCNC(=N)N)NC(=O)[C@H](Cc1ccccc1)NC(=O)[C@@H](N)CCCNC(=N)N)C(=O)NCCC(N)=O 2780
